Biological target: human follicle-stimulating hormone receptor (FSHR) (Homo sapiens, UniProt P23945)
Construct: host or cells: CHO-K1
Sequence (P23945 18-695): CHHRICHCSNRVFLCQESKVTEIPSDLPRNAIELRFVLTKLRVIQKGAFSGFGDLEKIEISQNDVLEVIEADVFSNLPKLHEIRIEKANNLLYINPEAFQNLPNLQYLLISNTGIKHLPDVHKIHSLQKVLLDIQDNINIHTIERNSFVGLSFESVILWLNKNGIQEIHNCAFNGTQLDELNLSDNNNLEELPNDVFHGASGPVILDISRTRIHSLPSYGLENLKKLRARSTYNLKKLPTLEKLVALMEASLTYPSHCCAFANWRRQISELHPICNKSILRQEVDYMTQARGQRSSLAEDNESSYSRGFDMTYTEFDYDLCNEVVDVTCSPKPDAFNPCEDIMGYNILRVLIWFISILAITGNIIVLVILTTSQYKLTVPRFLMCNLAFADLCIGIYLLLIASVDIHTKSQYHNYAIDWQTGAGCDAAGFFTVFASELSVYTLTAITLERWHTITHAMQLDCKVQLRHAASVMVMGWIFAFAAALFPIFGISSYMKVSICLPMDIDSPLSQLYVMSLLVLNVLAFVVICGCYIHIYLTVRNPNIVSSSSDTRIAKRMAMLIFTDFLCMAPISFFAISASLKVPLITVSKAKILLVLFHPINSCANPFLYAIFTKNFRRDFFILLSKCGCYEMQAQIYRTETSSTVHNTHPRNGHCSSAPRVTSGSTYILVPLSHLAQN
Assay: Measurement of agonist cAMP production by activation of human FSHR
Type: cell-based
Conditions: CHO-K1 human FSHR cells, 30 minutes at 37° C., HTRF cAMP kit; read-out: hFSHR Agonist cAMP EC50
pEC50: −log10 of the molar value. Starred links: 1 amine or outer side, 2 acyl side, 3 side chain; linkers in the order of their positions; H or OH if unused. Non-standard residues stand in square brackets, D forms with d. Residues, ends and D or L forms follow the SMILES beside them. Groups on a side chain read outwards from the residue. *: point of attachment. X1 = COc1cc2c(cc1-c1cccc(N*)c1)-c1c(c(C(=O)N3CCOCC3(C)C)nn1-c1cc(Cl)cc(Cl)c1)CO2; DOTA = O=C(O)CN1CCN(CC(=O)O)CCN(CC(=O)*)CCN(CC(=O)O)CC1; Suc = O=C(CCC(=O)[*:2])[*:1]
observable: pEC50

# annotated cases, reported pEC50 shown
COc1cc2c(cc1-c1cccc(NC(=O)CN3CCC(NC(=O)[C@H](CS(=O)(=O)O)NC(=O)CN4CCN(CC(=O)O)CCN(CC(=O)O)CCN(CC(=O)O)CC4)CC3)c1)-c1c(c(C(=O)N3CCOCC3(C)C)nn1-c1cc(Cl)cc(Cl)c1)CO2    7.00 to 8.00
COc1cc2c(cc1-c1cccc(NC(=O)CCOCCOCCOCCOCCNC(=O)[C@@H](CCC(=O)O)NC(=O)CN3CCN(CC(=O)O)CCN(CC(=O)O)CCN(CC(=O)O)CC3)c1)-c1c(c(C(=O)N3CCOCC3(C)C)nn1-c1cc(Cl)cc(Cl)c1)CO2    > 8.00

Look up pEC50 for the entries below, preserving their order.
1. COc1cc2c(cc1-c1cncc(NC(=O)CCNC(=O)[C@@H](CC(=O)O)NC(=O)[C@@H](CC(=O)O)NC(=O)[C@H](N)CCCNC(=O)CN3CCN(CC(=O)O)CCN(CC(=O)O)CCN(CC(=O)O)CC3)c1)-c1c(c(C(=O)N3CCOCC3(C)C)nn1-c1cc(Cl)cc(Cl)c1)CO2
2. COc1cc2c(cc1-c1cccc(NC(=O)CCC(=O)NCCCC[C@@H](NC(=O)[C@@H](C)NC(=O)[C@@H](C)NC(=O)[C@@H](CC(N)=O)NC(=O)[C@@H](CC(=O)O)NC(=O)[C@@H](CCCNC(=N)N)NC(=O)[C@@H](C)NC(=O)CN3CCN(CC(=O)O)CCN(CC(=O)O)CCN(CC(=O)O)CC3)C(N)=O)c1)-c1c(c(C(=O)N3CCOCC3(C)C)nn1-c1cc(Cl)cc(Cl)c1)CO2 [Compound 91] ({DOTA}-[dA][dR][dD][dN][dA][dA][dK]([Suc-X1])-NH2)

1. 7.00 to 8.00
2. 7.00 to 8.00

Quick request: pEC50 for each listed item, please.
1. COc1cc2c(cc1-c1cccc(NC(=O)CCOCCOCCOCCOCCOCCOCCNC(=O)CN3CCN(CC(=O)O)CCN(CC(=O)O)CCN(CC(=O)O)CC3)c1)-c1c(c(C(=O)N3CCOCC3(C)C)nn1-c1cc(Cl)cc(Cl)c1)CO2 [Compound 16]
2. COc1cc2c(cc1-c1cccc(NC(=O)CCC(=O)NCCCC[C@@H](NC(=O)[C@@H](C)NC(=O)CN3CCN(CC(=O)O)CCN(CC(=O)O)CCN(CC(=O)O)CC3)C(=O)N[C@H](CCC(=O)O)C(=O)N[C@H](CCC(=O)O)C(=O)N[C@H](CCC(=O)O)C(=O)N[C@H](CCC(=O)O)C(=O)N[C@H](C)C(N)=O)c1)-c1c(c(C(=O)N3CCOCC3(C)C)nn1-c1cc(Cl)cc(Cl)c1)CO2 [Compound 87] ({DOTA}-[dA][dK]([Suc-X1])[dE][dE][dE][dE][dA]-NH2)

1: 7.00 to 8.00; 2: 7.00 to 8.00
